Give phosphorylation enrichment for every item shown.
- study system: EPHB1 (UniProt P54762)
- Sequence (P54762 whole entry, looked up): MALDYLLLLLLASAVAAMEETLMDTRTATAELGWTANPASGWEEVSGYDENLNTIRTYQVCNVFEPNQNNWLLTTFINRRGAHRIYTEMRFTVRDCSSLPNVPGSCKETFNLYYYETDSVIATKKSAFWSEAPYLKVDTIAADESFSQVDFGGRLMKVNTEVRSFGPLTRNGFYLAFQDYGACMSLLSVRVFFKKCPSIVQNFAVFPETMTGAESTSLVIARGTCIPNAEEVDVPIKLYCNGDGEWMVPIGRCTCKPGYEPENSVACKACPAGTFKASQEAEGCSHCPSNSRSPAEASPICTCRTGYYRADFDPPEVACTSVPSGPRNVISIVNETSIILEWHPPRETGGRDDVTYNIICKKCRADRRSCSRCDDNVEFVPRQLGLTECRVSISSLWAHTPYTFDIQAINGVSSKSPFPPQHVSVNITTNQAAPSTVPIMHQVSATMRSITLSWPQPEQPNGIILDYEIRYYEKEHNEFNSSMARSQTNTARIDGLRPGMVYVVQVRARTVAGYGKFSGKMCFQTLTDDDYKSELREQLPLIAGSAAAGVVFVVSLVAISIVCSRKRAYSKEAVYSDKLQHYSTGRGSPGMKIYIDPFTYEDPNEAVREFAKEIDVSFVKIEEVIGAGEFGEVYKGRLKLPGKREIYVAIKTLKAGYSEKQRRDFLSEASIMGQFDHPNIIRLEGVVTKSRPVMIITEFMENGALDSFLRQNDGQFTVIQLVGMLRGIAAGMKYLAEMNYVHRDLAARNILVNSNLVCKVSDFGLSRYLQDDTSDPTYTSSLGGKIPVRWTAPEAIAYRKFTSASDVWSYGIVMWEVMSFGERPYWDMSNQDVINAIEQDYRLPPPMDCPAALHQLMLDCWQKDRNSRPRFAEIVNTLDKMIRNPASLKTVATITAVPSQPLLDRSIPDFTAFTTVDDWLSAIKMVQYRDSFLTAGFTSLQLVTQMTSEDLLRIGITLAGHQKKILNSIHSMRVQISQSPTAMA
- measurement protocol: phosphorylation enrichment, bacterial display (enrichment ratio); higher = better substrate or ligand; peptides without Tyr show the background
One number for each entry.

[
  {
    "residue sequence": "GSERDYTFDEL [EIF2S2_Y174_E177D_YF]",
    "phosphorylation enrichment": 0.577
  },
  {
    "residue sequence": "PLRPDYQEPSR [DDR2_Y481]",
    "phosphorylation enrichment": 0.581
  }
]

Dear colleague, could you send me phosphorylation enrichment for each of the items below? Thanks.
1. EEHIPYTHMNG [INSR_Y1361]
2. TFEYRYLEDRD [CNOT3_Y746]

A)
[0.54, 0.623]

---

- study system: c-Src SH2;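 also: peptide library displayed on the E. coli surface as eCPX fusions, selected cells deep-sequenced, score is each peptide's frequency after selection divided by its frequency in the input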
- measurement protocol: SH2 binding enrichment of the phosphorylated peptide, bacterial display (enrichment ratio); higher = better substrate or ligand; peptides without Tyr show the background
The threshold is inclusive: SH2 binding enrichment of exactly 0.6 counts as Criterion met; values below receive Criterion not met.

Example results:
[
  {
    "residue sequence": "CTTIHYNFMHN [TP53_Y234_C238H_YF]",
    "study system": "c-Src SH2",
    "category label": "Criterion met"
  },
  {
    "residue sequence": "NPPGMYPVTGP [LPP_Y346]",
    "study system": "c-Src SH2",
    "category label": "Criterion not met"
  },
  {
    "residue sequence": "IDQDKYAVHFI [FLNA_Y2388_R2391H]",
    "study system": "c-Src SH2",
    "category label": "Criterion not met"
  },
  {
    "residue sequence": "SSREGYVSHHN [FAM83B_Y433]",
    "study system": "c-Src SH2",
    "category label": "Criterion not met"
  },
  {
    "residue sequence": "INVTIYGKTFR [EFHC1_Y177_I174V]",
    "study system": "c-Src SH2",
    "category label": "Criterion not met"
  },
  {
    "residue sequence": "IKGNMYFENSF [EGFR_Y112_R108K_YF]",
    "study system": "c-Src SH2",
    "category label": "Criterion met"
  }
]

Q) Confirm if SH2 binding enrichment reported for the sequence YSIDHYLGKEM [G6PD_Y202_R198S] is 0.6 or above.
A) Criterion not met

---

- study system: FGFR1 (UniProt P11362)
- Sequence (P11362 whole entry, looked up): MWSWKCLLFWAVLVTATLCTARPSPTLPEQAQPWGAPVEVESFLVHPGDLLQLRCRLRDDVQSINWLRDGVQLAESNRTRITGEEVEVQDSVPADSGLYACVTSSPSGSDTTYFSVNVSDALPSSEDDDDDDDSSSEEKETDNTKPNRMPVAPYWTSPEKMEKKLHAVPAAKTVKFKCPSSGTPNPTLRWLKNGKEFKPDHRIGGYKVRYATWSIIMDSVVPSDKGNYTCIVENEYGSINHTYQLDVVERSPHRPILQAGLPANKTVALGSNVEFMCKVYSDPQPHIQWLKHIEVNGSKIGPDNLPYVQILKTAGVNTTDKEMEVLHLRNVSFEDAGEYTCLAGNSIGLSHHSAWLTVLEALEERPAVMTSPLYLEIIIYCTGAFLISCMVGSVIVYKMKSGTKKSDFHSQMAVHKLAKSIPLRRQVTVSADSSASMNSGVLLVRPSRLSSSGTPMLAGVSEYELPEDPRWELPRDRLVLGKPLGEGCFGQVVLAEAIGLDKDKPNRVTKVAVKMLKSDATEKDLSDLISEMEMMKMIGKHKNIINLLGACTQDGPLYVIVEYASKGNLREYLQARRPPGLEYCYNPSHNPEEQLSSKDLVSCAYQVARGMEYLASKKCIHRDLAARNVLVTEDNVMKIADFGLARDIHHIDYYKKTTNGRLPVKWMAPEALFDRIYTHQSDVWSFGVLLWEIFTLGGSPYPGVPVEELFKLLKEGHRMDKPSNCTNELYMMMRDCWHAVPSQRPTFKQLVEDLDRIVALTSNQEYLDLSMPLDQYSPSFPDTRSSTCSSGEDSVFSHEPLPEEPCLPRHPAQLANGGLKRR
- measurement protocol: phosphorylation enrichment, bacterial display (enrichment ratio); higher = better substrate or ligand; peptides without Tyr show the background
Give phosphorylation enrichment for every item shown.
Answers are plain numbers.

Example entries and their recorded answers appear below.
[
  {
    "residue sequence": "AKQVGCENAGT [PC_Y304_Y304C]",
    "study system": "FGFR1 (UniProt P11362)",
    "phosphorylation enrichment": 0.391
  },
  {
    "residue sequence": "PLRPDYQEPSR [DDR2_Y481]",
    "study system": "FGFR1 (UniProt P11362)",
    "phosphorylation enrichment": 0.532
  },
  {
    "residue sequence": "KLKPIYFHTQG [AR_Y916_V912L]",
    "study system": "FGFR1 (UniProt P11362)",
    "phosphorylation enrichment": 0.511
  },
  {
    "residue sequence": "VTRLWYPVCFG [ITK_Y336_R335W]",
    "study system": "FGFR1 (UniProt P11362)",
    "phosphorylation enrichment": 1.11
  },
  {
    "residue sequence": "HLLRIYFDITD [MMP27_Y307_W304L_YF]",
    "study system": "FGFR1 (UniProt P11362)",
    "phosphorylation enrichment": 0.874
  },
  {
    "residue sequence": "KRPAVYIDEEA [EPM2A_Y304]",
    "study system": "FGFR1 (UniProt P11362)",
    "phosphorylation enrichment": 0.598
  },
  {
    "residue sequence": "QNTGDDYDLYG [PTPN11_Y62_Y62D]",
    "study system": "FGFR1 (UniProt P11362)",
    "phosphorylation enrichment": 0.82
  },
  {
    "residue sequence": "KRELRYMHSRV [ABCD1_Y281_G277R]",
    "study system": "FGFR1 (UniProt P11362)",
    "phosphorylation enrichment": 0.295
  },
  {
    "residue sequence": "ERRLIYASDPK [VPS13D_Y864_T865A]",
    "study system": "FGFR1 (UniProt P11362)",
    "phosphorylation enrichment": 0.46
  },
  {
    "residue sequence": "SAPDSYIRIGN [SLC38A4_Y27_G29R]",
    "study system": "FGFR1 (UniProt P11362)",
    "phosphorylation enrichment": 0.424
  }
]

Dear colleague, could you send me phosphorylation enrichment for each of the items below? Thanks.
1. QEALEYFMKQV [PIK3CA_Y1038_M1043V]
2. FLRKEYGGVNV [CBR3_Y81_L84V]
3. SVSVNYGDQVQ [GRAP_Y101]
4. RLLRGYRQDAY [HLA-A_Y137_F133L]

A)
[0.408, 0.416, 0.481, 0.608]

---

- study system: Jak2 (UniProt O60674)
- Sequence (O60674 whole entry, looked up): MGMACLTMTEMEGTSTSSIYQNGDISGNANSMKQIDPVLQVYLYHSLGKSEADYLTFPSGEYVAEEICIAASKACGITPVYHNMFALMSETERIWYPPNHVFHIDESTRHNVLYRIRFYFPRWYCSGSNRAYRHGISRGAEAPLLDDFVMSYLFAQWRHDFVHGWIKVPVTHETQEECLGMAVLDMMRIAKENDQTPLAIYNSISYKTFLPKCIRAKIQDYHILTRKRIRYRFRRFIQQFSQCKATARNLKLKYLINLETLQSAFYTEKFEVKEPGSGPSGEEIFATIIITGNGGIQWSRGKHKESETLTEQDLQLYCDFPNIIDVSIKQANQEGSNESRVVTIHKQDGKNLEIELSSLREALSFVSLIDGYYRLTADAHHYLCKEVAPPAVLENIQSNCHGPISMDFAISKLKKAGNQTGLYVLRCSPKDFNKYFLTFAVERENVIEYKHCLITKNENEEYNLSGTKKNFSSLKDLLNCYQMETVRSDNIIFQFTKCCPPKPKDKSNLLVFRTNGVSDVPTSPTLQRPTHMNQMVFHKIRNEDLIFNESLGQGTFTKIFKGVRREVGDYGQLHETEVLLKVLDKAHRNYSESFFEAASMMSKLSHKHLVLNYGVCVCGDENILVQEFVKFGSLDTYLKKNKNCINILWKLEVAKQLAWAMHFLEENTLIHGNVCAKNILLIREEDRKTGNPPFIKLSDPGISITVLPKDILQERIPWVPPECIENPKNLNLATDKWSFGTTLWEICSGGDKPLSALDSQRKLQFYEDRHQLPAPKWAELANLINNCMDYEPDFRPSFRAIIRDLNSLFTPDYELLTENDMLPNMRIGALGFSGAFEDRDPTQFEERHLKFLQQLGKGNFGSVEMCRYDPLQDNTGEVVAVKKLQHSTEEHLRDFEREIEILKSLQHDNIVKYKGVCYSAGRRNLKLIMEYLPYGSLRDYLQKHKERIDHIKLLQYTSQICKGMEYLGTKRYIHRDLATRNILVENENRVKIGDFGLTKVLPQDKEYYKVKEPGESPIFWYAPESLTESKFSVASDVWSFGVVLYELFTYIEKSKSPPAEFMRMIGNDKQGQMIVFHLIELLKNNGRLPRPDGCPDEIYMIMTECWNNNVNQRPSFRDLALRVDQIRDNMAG
- measurement protocol: phosphorylation enrichment, bacterial display (enrichment ratio); higher = better substrate or ligand; peptides without Tyr show the background
Give phosphorylation enrichment for every item shown.
Give bare numbers.

Example entries and their recorded answers appear below.
[
  {
    "residue sequence": "KLPDAYERFIL [G6PD_Y437_L440F]",
    "phosphorylation enrichment": 0.892
  },
  {
    "residue sequence": "KNCFKYYMSDD [ATRX_Y203]",
    "phosphorylation enrichment": 1.16
  },
  {
    "residue sequence": "TDLAYYLVREG [ASL_Y376_K380E]",
    "phosphorylation enrichment": 3.04
  },
  {
    "residue sequence": "DLITAYRAHGF [PDHA1_Y118_H113D]",
    "phosphorylation enrichment": 0.563
  },
  {
    "residue sequence": "NMRSTYAKLAA [SEC22B_Y193_H190R]",
    "phosphorylation enrichment": 0.587
  }
]

Dear colleague, could you send me phosphorylation enrichment for each of the items below? Thanks.
1. SVVVPYESPEV [TP53_Y220_P222S]
2. AAALAYGLDKS [HSPA9_Y230]
3. GGGGSYNNFGN [HNRNPA1_Y312_D314N]

A)
[0.867, 1.2, 0.463]

Dear colleague, could you send me phosphorylation enrichment for each of the items below? Thanks.
1. RQSHNYLGGFA [SYK_Y47_R45H]
2. DEDFLYREELA [POR_Y575_YF]
3. VIEQRYNETWL [SLC2A4_Y56_S55R]
4. EKLQKYYRKNP [EHHADH_Y682_Q685K]
5. TVQVAYYTMMM [SPATA17_Y83]

A)
0.523
1.15
0.744
0.694
4.2

Q) Form field - read-out: phosphorylation enrichment; system: Jak2 (UniProt O60674); submitted item: QNTGDDYDLYG [PTPN11_Y62_Y62D]
A) 1.9

---

- study system: MERTK (UniProt Q12866)
- Sequence (Q12866 whole entry, looked up): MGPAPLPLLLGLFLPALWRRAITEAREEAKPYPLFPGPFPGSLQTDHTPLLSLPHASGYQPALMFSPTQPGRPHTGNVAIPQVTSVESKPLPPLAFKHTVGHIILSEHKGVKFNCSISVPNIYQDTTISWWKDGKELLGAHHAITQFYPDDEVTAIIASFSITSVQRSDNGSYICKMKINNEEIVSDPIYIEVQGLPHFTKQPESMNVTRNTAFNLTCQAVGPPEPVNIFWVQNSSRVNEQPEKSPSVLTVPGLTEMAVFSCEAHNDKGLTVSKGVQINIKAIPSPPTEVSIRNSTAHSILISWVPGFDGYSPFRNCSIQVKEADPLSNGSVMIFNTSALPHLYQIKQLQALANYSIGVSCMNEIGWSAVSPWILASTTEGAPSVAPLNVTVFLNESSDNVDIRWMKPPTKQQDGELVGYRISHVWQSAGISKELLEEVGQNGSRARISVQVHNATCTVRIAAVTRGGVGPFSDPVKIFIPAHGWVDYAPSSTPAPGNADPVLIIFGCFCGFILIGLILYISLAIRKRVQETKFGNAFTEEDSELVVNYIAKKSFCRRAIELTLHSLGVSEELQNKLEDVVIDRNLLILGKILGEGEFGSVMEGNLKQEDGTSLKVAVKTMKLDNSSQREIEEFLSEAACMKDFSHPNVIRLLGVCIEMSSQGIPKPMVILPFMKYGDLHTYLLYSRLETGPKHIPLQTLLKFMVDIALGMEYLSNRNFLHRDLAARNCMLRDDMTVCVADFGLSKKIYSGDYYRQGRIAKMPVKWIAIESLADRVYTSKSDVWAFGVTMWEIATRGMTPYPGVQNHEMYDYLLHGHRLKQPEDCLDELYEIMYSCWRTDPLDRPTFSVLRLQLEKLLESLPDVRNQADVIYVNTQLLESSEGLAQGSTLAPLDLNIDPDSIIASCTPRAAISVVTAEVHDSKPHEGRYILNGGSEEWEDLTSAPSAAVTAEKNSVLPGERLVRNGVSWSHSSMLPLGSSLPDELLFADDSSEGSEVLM
- measurement protocol: phosphorylation enrichment, bacterial display (enrichment ratio); higher = better substrate or ligand; peptides without Tyr show the background
reported property: phosphorylation enrichment

[
  {
    "residue sequence": "KRELRYMHSRV [ABCD1_Y281_G277R]",
    "phosphorylation enrichment": 0.305
  },
  {
    "residue sequence": "EYGFRYELVQY [UGGT2_Y1289]",
    "phosphorylation enrichment": 0.631
  },
  {
    "residue sequence": "KCCCIYEKPRS [PPP1R11_Y64_A69S]",
    "phosphorylation enrichment": 1.17
  },
  {
    "residue sequence": "GIVEDYRPTFY [ACVRL1_Y421_P424T]",
    "phosphorylation enrichment": 0.404
  },
  {
    "residue sequence": "NVGGKYSFLKV [GRM3_Y478_YF]",
    "phosphorylation enrichment": 0.456
  }
]

Dear colleague, could you send me phosphorylation enrichment for each of the items below? Thanks.
1. GLDGSYLLTDS [SH2D1A_Y29_R32T]
2. TSNQEYLFLSM [FGFR1_Y766_D768Y_YF]
3. ILTYKYLQKPM [KIT_Y547]
4. ECKASYPGKIT [PRSS3_Y232]
5. GEDLSYGDLPP [IRS1_Y151_V154L]

A)
1. 0.369
2. 0.469
3. 0.487
4. 0.402
5. 0.543

Dear colleague, could you send me phosphorylation enrichment for each of the items below? Thanks.
1. DLITAYRAHGF [PDHA1_Y118_H113D]
2. VIEQRYNETWL [SLC2A4_Y56_S55R]

A)
0.355
0.381

Dear colleague, could you send me phosphorylation enrichment for each of the items below? Thanks.
1. SSNPEYLSASD [INSR_Y999]
2. DDKQPYEKKAA [HMGB1_Y144]

A)
[0.476, 0.415]
